target: Protein kinase C delta type (Homo sapiens); test: Inhibition of [3H]PDBu binding to PKCdelta-C1A domain peptide (unknown origin)
Sequence (Q05655 whole entry, the tested form may be a part): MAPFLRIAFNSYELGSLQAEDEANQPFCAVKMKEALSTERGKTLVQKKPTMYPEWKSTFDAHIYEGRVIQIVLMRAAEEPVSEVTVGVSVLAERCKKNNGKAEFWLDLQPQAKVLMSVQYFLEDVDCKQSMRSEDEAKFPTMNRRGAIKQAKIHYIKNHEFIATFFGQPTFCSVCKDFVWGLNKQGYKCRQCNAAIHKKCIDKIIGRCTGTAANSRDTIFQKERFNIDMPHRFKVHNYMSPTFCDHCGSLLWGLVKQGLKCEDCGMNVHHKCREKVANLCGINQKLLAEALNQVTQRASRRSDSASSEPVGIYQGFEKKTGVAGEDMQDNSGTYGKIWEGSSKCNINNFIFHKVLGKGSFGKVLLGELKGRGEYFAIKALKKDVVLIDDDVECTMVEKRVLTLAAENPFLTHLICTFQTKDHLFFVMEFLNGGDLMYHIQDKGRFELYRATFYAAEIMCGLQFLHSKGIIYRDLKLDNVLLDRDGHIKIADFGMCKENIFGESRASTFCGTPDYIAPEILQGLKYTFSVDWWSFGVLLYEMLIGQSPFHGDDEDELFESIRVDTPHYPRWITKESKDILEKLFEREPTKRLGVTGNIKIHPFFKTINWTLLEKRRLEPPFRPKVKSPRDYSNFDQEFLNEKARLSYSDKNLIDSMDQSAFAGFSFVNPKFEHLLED
Attribute Measured: log10(Ki) (log10 of the value in nM)
Remember, log10 of Ki, in nM.

Here are 2 compounds together with their reported answers.
> print(dat)
                                 smiles.str                             tested.target  number
1  CC1(C)CC[C@@H]2CC(=O)O[C@@H](CO)CC(=O)O[C@@H]3C[C@@H](CCCCc4c(Br)cc(Br)c(O)c4Br)O[C@@]1(C3)O2  Protein kinase C delta type (Homo sapiens)    1.90
2  CO[C@@H](CC[C@H](C)[C@H]1O[C@@]23C[C@H](OC(=O)C[C@H]([C@@H](C)O)OC(=O)C[C@](O)(O2)[C@H](C)CC3(C)C)[C@@H]1C)c1cccc(O)c1  Protein kinase C delta type (Homo sapiens)    0.99

# log10(Ki) lookup, item COc1cccc(CCCC[C@@H]2C[C@@H]3C[C@@]4(O[C@H](CCC4(C)C)CC(=O)O[C@@H](CO)CC(=O)O3)O2)c1
2.52

Consider next the compound C[C@H]1[C@@H]2C[C@@]3(O[C@H](CCC3(C)C)CC(=O)O[C@@H](CO)CC(=O)O2)O[C@@H]1CCCCc1cccc(O)c1 in the same way.
1.34

Consider next the compound CC1(C)CC[C@@H]2CC(=O)O[C@@H](CO)CC(=O)O[C@@H]3C[C@@H](CCCCc4ccc(I)c(O)c4)O[C@@]1(C3)O2 in the same way.
1.91

Consider next the compound CC1(C)CC[C@@H]2CC(=O)O[C@@H](CO)CC(=O)O[C@@H]3C[C@@H](CCCCc4cc(O)c(Br)cc4Br)O[C@@]1(C3)O2 in the same way.
1.97

Consider next the compound CC1(C)CC[C@@H]2CC(=O)O[C@@H](CO)CC(=O)O[C@@H]3C[C@@H](CCCCc4cc(O)ccc4I)O[C@@]1(C3)O2 in the same way.
2.04

Consider next the compound CC1(C)CC[C@@H]2CC(=O)O[C@@H](CO)CC(=O)O[C@@H]3C[C@@H](CCCCc4cc(O)ccc4Br)O[C@@]1(C3)O2 in the same way.
1.82

Consider next the compound CC(=O)Nc1ccc(CCCC[C@@H]2C[C@@H]3C[C@@]4(O[C@H](CCC4(C)C)CC(=O)O[C@@H](CO)CC(=O)O3)O2)cc1O in the same way.
2.46

Consider next the compound CC(=O)Nc1ccc(O)cc1CCCC[C@@H]1C[C@@H]2C[C@@]3(O[C@H](CCC3(C)C)CC(=O)O[C@@H](CO)CC(=O)O2)O1 in the same way.
3.94
